Test system: CASKI
TEST PROTOCOL: Confirmatory qHTS for gynecologic anti-cancer compounds from libraries of approved drugs and bioactive compounds; note: nearly all actives have a fitted effect of over 55% in size
CONDITION DESCRIPTION: gynecologic cancer cell panel viability, ATPlite luminescence, 48 h; series mostly up to 57.6 µM
Records with an inconclusive call do not appear. Activity calls are given as the source filed them. Calls come from the whole dose curve; as a rule, active = well fitted cell-killing curve with a large enough effect; inconclusive = small, poorly fitted or top-dose-only effect, or effect the other way; inactive = no such curve, though single readings can be large or run the other way. *1 amine or outer side, *2 acyl side, *3 side chain or, on linkers, in order; H or OH if unused. Where a SMILES comes first, the peptide text is derived from it. Bridges are numbered along the chain shown (N, C = ends). Roman numbers before positions name the chains, in order. [ ]: non-standard residue; d: D form. Actinocin(9to1) = Cc1c2oc3c(C)ccc(C(=O)[*:1])c3nc-2c(C(=O)[*:2])c(N)c1=O; NMeV = CN[C@H](C(=O)O)C(C)C; Sar = CNCC(=O)O
Labels: active, inactive

INSERT INTO measurements (compound, category) VALUES
  ('NC(=O)c1cnc(-c2ccc(C3(N)CCC3)cc2)c(-c2ccccc2)c1', 'active'),
  ('COc1cc2c(c(OC)c1OC)-c1ccc(OC)c(=O)cc1[C@@H](NC(C)=O)CC2', 'inactive'),
  ('CNCc1ccc(-c2[nH]c3cc(F)cc4c3c2CCNC4=O)cc1', 'inactive'),
  ('CCc1c2c(nc3ccc(O)cc13)-c1cc3c(c(=O)n1C2)COC(=O)[C@]3(O)CC', 'active'),
  ('CN(C)/N=N/c1nc[nH]c1C(N)=O', 'inactive'),
  ('Cc1c2oc3c(C)ccc(C(=O)N[C@@H]4C(=O)N[C@H](C(C)C)C(=O)N5CCC[C@H]5C(=O)N(C)CC(=O)N(C)[C@@H](C(C)C)C(=O)O[C@@H]4C)c3nc-2c(C(=O)N[C@@H]2C(=O)N[C@H](C(C)C)C(=O)N3CCC[C@H]3C(=O)N(C)CC(=O)N(C)[C@@H](C(C)C)C(=O)O[C@@H]2C)c(N)c1=O (I: T[dV]P[Sar][NMeV] / II: T[dV]P[Sar][NMeV]; ester I:1-I:C, II:1-II:C; linker I:N-II:N via Actinocin(9to1))', 'active'),
  ('CNC(=O)c1nn(C)c2c1C(C)(C)Cc1cnc(Nc3ccc(N4CCN(C)CC4)cc3)nc1-2', 'active'),
  ('Cc1cnc(Nc2cccc(CN3CCOCC3)c2)nc1Nc1cccc(S(=O)(=O)NC(C)(C)C)c1', 'active');
